# Target Entity: T1, CGH-1_(248–420) R393A (C. elegans, UniProt Q95YF3 248-420, R393A)
# T1 construct: Mutant of m1 made with the MutanBEST kit; source: E. coli Gold (DE3), purified (Ni-chelating resin, SEC Superdex 75)
# T1 sequence (looked up): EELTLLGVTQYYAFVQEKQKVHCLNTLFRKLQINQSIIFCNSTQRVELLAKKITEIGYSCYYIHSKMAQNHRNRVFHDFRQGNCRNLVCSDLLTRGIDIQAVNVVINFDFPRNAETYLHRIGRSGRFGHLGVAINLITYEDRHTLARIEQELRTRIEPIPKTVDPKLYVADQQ
# Experiment Notes: ITC; ligand (peptide or CAR-1 fragment, 0.5 mM) injected into CGH-1_(248-420) or mutant (0.05 mM) in the cell; 20 °C; Buffer B (20 mM Tris-HCl pH 7.5, 150 mM NaCl); one-binding-site model
# Measurement Conditions: both partners purified
Endpoint Label: pKd
In textbook form, pKd equals minus log to base ten of the concentration in mol/L.

The binder SDEDHNIFDDEFDAANDETFGGGLDNIGENAELENYAT (PATR-1 (Pat1 ortholog), C. elegans, residues 30-67; Printed with free NH2 and COOH ends; also called PATR1_30-67^WT; CePATR-1 peptide; source: synthetic peptide (GL Biochem, Shanghai)) [PATR-1 peptide (CePATR-1_(30–67))] showed pKd equal to 5.37
